System: Trypanosoma cruzi
protocolDescription: Trypanosoma cruzi phosphomannomutase and mannose-1-phosphate guanylyltransferase assay
Format: functional
Parameters: scale not given: direction of the effect not stated beside the values
testParameters: 10 µM
readoutName: Percent Effect (%)

>>> print(df.to_string())
                                    compound      subjectoftest  measvalue
 0       Cn1cccc1C(=O)N1CCCN(CCCc2ccccc2)CC1  Trypanosoma cruzi      -2.38
 1  CC(C)c1ncc2c(n1)CN(Cc1ccc(C(N)=O)cc1)CC2  Trypanosoma cruzi       10.7
 2  CN(C)C(=O)CN1C(=O)CCC12CCN(Cc1cccn1C)CC2  Trypanosoma cruzi          3
 3  CCc1nc(CN2CCCC(NCc3ccc(C(N)=O)cc3)C2)no1 (stereo unspecified)  Trypanosoma cruzi       2.93
 4  Cc1nnc(CN2CCCC(c3cc(C(N)=O)[nH]n3)C2)o1 (stereo unspecified)  Trypanosoma cruzi      -1.23
 5    Cc1ccccc1N1CCCN(C(=O)CCCS(N)(=O)=O)CC1  Trypanosoma cruzi      -8.62
 6  Cc1n[nH]c(C2CN(CC(=O)NCCc3ccsc3)CCO2)n1 (stereo unspecified)  Trypanosoma cruzi      -3.13
 7   Cc1ccsc1C(=O)N1Cc2ccccc2C2(CCN(C)CC2)C1  Trypanosoma cruzi      -5.55
 8  CCS(=O)(=O)N1CCC[C@]2(C(=O)N(C)C)CN(c3ncccn3)C[C@@H]2C1  Trypanosoma cruzi      0.193
 9   O=C(CCC1CCN(Cc2ncc[nH]2)CC1)Nc1ccccc1Cl  Trypanosoma cruzi     -0.291
10  COc1ccc(NC(=O)c2ccc(-n3ncc(C#N)c3N)cc2)cn1  Trypanosoma cruzi      -3.68

* * *

subjectOfTest: Proteasome subunit beta (Trypanosoma cruzi) (UniProt O96673)
Sequence (O96673 as listed by the source): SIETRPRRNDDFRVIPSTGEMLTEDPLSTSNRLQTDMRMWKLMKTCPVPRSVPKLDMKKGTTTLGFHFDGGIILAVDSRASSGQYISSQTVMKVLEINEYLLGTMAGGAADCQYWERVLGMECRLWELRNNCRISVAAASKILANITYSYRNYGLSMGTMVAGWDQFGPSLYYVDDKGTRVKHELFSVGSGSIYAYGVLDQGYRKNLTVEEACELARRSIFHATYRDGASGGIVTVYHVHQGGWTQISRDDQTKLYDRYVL
protocolDescription: Trypanosoma cruzi proteasome chymotrypsin-like activity (TcProtChymo) assay. Also: in the data most compounds retested in dose-response had high values.
Format: functional
Design: scale not given: direction of the effect not stated beside the values
testParameters: 9.37 µM
Decision: Percent Effect >= 10% yields fulfilled, all other cases yield not fulfilled.

>>> df
                                   compound                             subjectoftest    answerlabel
0  CS(=O)(=O)N1CCc2nc(NC(=O)Nc3c(F)cccc3F)sc2C1  Proteasome subunit beta (Trypanosoma cruzi) (UniProt O96673)  not fulfilled
1         COCCC(=O)N1CC2(CCN(Cc3ccoc3)C2)C1  Proteasome subunit beta (Trypanosoma cruzi) (UniProt O96673)      fulfilled
2  Cc1ccc(-c2cc(N)c(=O)n(CC(=O)NCC3CCCCC3)n2)s1  Proteasome subunit beta (Trypanosoma cruzi) (UniProt O96673)      fulfilled
3  CNC(=O)CS(=O)(=O)Cc1coc(-c2ccc(OC)cc2)n1  Proteasome subunit beta (Trypanosoma cruzi) (UniProt O96673)      fulfilled
4  Cc1nnc(N2C[C@@H](OCCCn3cccn3)[C@H]3OCCC[C@H]32)s1  Proteasome subunit beta (Trypanosoma cruzi) (UniProt O96673)      fulfilled
5  COCCCN1CCCN(C(C)c2nc(C3CC3)no2)CC1 (centres undefined)  Proteasome subunit beta (Trypanosoma cruzi) (UniProt O96673)  not fulfilled
6  Cc1cnn(CC2CCCN2C(=O)CCc2c(C)noc2Cl)c1 (centres undefined)  Proteasome subunit beta (Trypanosoma cruzi) (UniProt O96673)      fulfilled
7  CN(C)CCN1CCC2(CCN(C(=O)c3ccc(F)cc3)CC2)C1=O  Proteasome subunit beta (Trypanosoma cruzi) (UniProt O96673)      fulfilled
8  O=C(c1ccc(-n2cccn2)nc1)N1CCC(Nc2cccnn2)CC1  Proteasome subunit beta (Trypanosoma cruzi) (UniProt O96673)      fulfilled
